// provenance: PubChem BioAssay (NCI)

Assay: NCI Yeast Anticancer Drug Screen. Data for the mlh1 rad18 strain (AID 175)
Settings: S. cerevisiae mlh1 rad18 strain growth inhibition; at 50.0 µM
About 79,000 compounds went through this panel and 15% of them were active in at least one assay; those are over-represented in the sample as a whole. The source made the active and inactive calls. No stated cut-off is given here; in the data, active means growth inhibition above about 70%; inactive means the rest.
Field 'call' accepts active, inactive

1) C=CC1=C(C)C2=NC1=CC1=NC(=CC3=C(C)C4=C(O)C(C(=O)OC)C(=C5NC(=C2)C(C)C5CCC(=O)OC)C4=N3)C(CC)=C1C (stereo not given)    inactive
2) O=c1ccc2c([nH]1)CCCC2    inactive
3) O=C1CN(C=C2C(=O)NC(=O)NC2=O)C(=S)N1    inactive

Hi, sorry to bother you, what did the test record for COC1/C=C\OC2(C)Oc3c(C)c(O)c4c(O)c(c(CN(C)C)c(O)c4c3C2=O)NC(=O)/C(C)=C\C=C/C(C)C(O)C(C)C(O)C(C)C(OC(C)=O)C1C (stereo not given) ?
inactive

In this assay, the call recorded for Nc1ncnc2c1ncn2C1C=COC(CO)C1O (stereo not given) was what?
inactive

Any idea what this test logged for CN(C)CC(O)c1ccc(Cl)c2ccccc12 (stereo not given) ?
inactive

For Cc1cc2ccccc2c[n+]1CC(=O)CC([O-])(C(F)(F)F)C(F)(F)F , which call appears in the assay record?
inactive

Hi team, can someone confirm the assay call for CC1=COCCO1 ?
inactive

Could you check what this test reported for Cc1cccc(NS(=O)(=O)c2ccc(Cl)cc2)c1C ?
active

Write down the call the test reported for this molecule. Item: COc1cc(C(c2c(O)c3ccccc3oc2=O)N2CCCC2)cc(OC)c1OC (stereo not given)
inactive

* * *

Test: NCI Yeast Anticancer Drug Screen. Data for the mec2-1 strain (AID 157)
Details: S. cerevisiae mec2-1 strain, at 50.0 µM, hits give high values
The panel holds about 79,000 compounds, 15% with a hit somewhere; the sample as a whole holds those more often.
MEASURED_ENDPOINT: growth inhibition (%)
Write the value in % as a bare number.

1. CCOc1cc(/C=C2\N=C(c3ccccc3)OC2=O)ccc1O    1.2
2. O=C(Nc1ccccc1Cl)c1ccccc1O    -8.7
3. COc1ccc(-n2c(N)c(C#N)c(C#N)c2-c2cccc([N+](=O)[O-])c2)cc1    9.75
4. CC(=O)CCCS(=O)(=O)c1ccccc1    14.9
5. O=C(NNc1nc(CCl)cs1)c1ccccc1Cl    -31.6

Fill in the blank: the reported growth inhibition of COc1cccc(C(=O)NCCNCCNC(=O)c2cccc(OC)c2OC)c1OC is ____.
0.7

// query growth inhibition value for entry CC(C)(C(=Nc1ccc([N+](=O)[O-])cc1)N1CCOCC1)c1ccccc1
6.7

Endpoint output: growth inhibition of O=c1[nH]c(=O)c2nc[nH]c(=O)c2[nH]1 . Value?
-8.45

What does the record list as growth inhibition for Cc1c(-c2ccccc2)c2ccccc2c2ccccc12 ?
-15.6

Suppose we examine the molecule CC(C)=CCc1ccc2c(c1)CCCN2C ; what growth inhibition value has been reported?
-22.1

Please look up its growth inhibition: COc1ccc(C2=C(c3ccccc3)C(C)(C)Oc3ccc4ccccc4c32)cc1
-0.05

Could you tell me which growth inhibition is on file for O=C(Cl)c1ccc2ccccc2c1 ?
8.3

* * *

Test: NCI Yeast Anticancer Drug Screen. Data for the mlh1 rad18 strain (AID 175)
Conditions: S. cerevisiae mlh1 rad18 strain growth inhibition; at 50.0 µM; hits give high values
Compounds without any hit were thinned out: in the full panel of roughly 79,000, 15% have a hit.
Rule: label 1 for growth inhibition not less than 20%, label 0 for anything less.

The examples below pair each entry with its known result.
1) COc1ccc(OC)c2c3c([nH]c12)C(=O)Nc1nc(N)nc(N)c1C3    label 1
2) CCc1cc(-c2ccc(OC)cc2)c(C#N)c(=S)n1C1OC(CO)C(O)C(O)C1O (stereo unspecified)    label 0
3) O=C(NNC(=O)c1cccc2ccccc12)c1ccccc1F    label 0
4) CCOC(=O)C(C)(C)O    label 0
5) O=C1CC2c3ccccc3C(O)(CC1=O)c1ccccc12    label 0

# bool: growth inhibition of Cc1cc(CN(C)C)cc(C(C)C)c1O >= 20%
label 0
